target: SERCA2a (Sus scrofa); experiment: oxalate-based Ca2+-uptake; assay type: biochemical, porcine; settings: [Ca2+]MAX (pCa 5.4), cardiac SR
testReadout: Ca2+-Uptake [Ca2+]MAX EC50 (μM)

Past entries and their recorded results:
CCCN(Cc1ccccc1OC)C(=O)c1ccc(F)c(Br)c1 [Compound 25] :: decreased
CCCN(Cc1ccccc1OC)C(=O)c1cc2c(s1)CCCC2 [Compound 8] :: unchanged
CCCCN(Cc1ccccc1OC)C(=O)c1cc(C)c(C)s1 [Compound 33] :: unchanged
CCCN(Cc1ccccc1OC)C(=O)c1cccc(Br)c1 [Compound 22] :: decreased
CCN(Cc1ccccc1OC)C(=O)c1cc(C)c(C)s1 [Compound 32] :: decreased

Quote Ca2+-Uptake [Ca2+]MAX EC50 (μM) reported for CCCN(Cc1ccccc1OC)C(=O)c1cc(F)cc(Br)c1 [Compound 26] please.
decreased

###

// reported Ca2+-Uptake [Ca2+]MID % effect per item
target: SERCA2a (Sus scrofa, UniProt P11607); test: oxalate-based Ca2+-uptake; assay type: biochemical, porcine; settings: [Ca2+]MID (pCa 6.2), cardiac SR
Sequence (P11607 1-997 isoform P11607-2): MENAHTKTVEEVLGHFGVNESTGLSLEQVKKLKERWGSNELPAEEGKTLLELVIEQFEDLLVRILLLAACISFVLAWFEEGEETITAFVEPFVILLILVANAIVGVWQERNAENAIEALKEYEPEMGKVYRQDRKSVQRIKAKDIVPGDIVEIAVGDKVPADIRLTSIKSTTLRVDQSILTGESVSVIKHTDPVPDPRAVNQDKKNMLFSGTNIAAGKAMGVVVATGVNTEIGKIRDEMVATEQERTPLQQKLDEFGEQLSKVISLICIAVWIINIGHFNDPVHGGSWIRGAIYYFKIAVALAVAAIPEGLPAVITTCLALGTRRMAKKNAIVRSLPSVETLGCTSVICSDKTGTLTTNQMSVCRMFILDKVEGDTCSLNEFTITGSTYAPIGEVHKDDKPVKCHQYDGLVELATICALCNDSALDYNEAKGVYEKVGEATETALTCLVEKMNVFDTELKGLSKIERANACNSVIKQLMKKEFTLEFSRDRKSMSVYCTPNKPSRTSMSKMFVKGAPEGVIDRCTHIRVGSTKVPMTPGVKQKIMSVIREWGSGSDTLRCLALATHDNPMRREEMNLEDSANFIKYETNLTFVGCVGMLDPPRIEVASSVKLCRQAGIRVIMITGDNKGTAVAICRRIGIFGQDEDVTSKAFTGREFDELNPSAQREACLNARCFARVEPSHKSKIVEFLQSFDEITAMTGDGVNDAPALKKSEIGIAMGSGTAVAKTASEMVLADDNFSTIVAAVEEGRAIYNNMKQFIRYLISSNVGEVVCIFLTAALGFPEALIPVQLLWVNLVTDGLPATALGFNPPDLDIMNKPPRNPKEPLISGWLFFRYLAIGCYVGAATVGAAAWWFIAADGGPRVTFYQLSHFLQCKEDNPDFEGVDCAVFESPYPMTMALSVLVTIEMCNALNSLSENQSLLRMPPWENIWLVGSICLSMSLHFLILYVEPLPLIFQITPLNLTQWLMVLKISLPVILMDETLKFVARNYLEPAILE
Use % as the unit, but write only the number.

Quote Ca2+-Uptake [Ca2+]MID % effect reported for CCCCN(Cc1ccccc1OC)C(=O)c1cc(C)c(C)s1 please.
15

###

// reported Thalf per item
test: Intrinsic clearance; format: in vitro ADME, human; settings: human liver S9 0.5 mg/mL, 1 μM compound, NADPH, 37 °C
Use min as the unit, but write only the number.

CCCN(Cc1ccccc1OC)C(=O)c1cc(F)cc(Br)c1 [Compound 26] :: 62.4
CCCN(Cc1ccccc1OC)C(=O)c1cccc(Br)c1 [Compound 22] :: 23.8
CCCN(Cc1ccccc1OC)C(=O)c1cccc(Br)c1F [Compound 24] :: 51.3
CCCN(Cc1ccccc1OC)C(=O)c1ccc(F)c(Br)c1 [Compound 25] :: 74.5

# evaluate next
Quote Thalf reported for CCCCN(Cc1ccccc1OC)C(=O)c1cc(C)c(C)s1 [Compound 33] please.
16.6

###

target: SERCA2a (Sus scrofa); experiment: NADH-coupled enzyme-linked Ca2+-ATPase activity assay in cardiac SR vesicles; type: biochemical, porcine; conditions: [Ca2+]MAX (pCa 5.4), cardiac SR
Returns T if the recorded Ca2+-ATPase [Ca2+]MAX % effect is greater than or equal to 40%, and F otherwise.

Reference set (3 entries):
CCCN(Cc1ccccc1OC)C(=O)c1cccc(Br)c1F [Compound 24] :: T
CCN(Cc1ccccc1OC)C(=O)c1cc(C)c(C)s1 [Compound 32] :: T
CCCCN(Cc1ccccc1OC)C(=O)c1cc(C)c(C)s1 [Compound 33] :: T

API: the following record is the query input.
Please indicate if the recorded Ca2+-ATPase [Ca2+]MAX % effect for CCCN(Cc1ccccc1OC)C(=O)c1ccc(Br)c(Br)c1 [Compound 23] meets or exceeds 40%.
F

###

// reported Ca2+-Uptake [Ca2+]MID % effect per item
target: SERCA2a (Sus scrofa, UniProt P11607); experiment: oxalate-based Ca2+-uptake; type: biochemical, porcine; conditions: [Ca2+]MID (pCa 6.2), cardiac SR
Use % as the unit, but write only the number.

Past entries and their recorded results:
CCN(Cc1ccccc1OC)C(=O)c1cc(C)c(C)s1 :: 6.0
CCCN(Cc1ccccc1OC)C(=O)c1cccc(C(F)(F)F)c1 :: 7.0

# evaluate next
Quote Ca2+-Uptake [Ca2+]MID % effect reported for CCCN(Cc1ccccc1OC)C(=O)c1cccc(Br)c1F please.
8.5

The origin of these recorded values is paper PMC12900291.
